tested.system: mouse Mcl-1 ΔN151 ΔC23 (mouse) (UniProt P97287)
Sequence (P97287 other isoform, or with tags, fused parts or gaps mutant): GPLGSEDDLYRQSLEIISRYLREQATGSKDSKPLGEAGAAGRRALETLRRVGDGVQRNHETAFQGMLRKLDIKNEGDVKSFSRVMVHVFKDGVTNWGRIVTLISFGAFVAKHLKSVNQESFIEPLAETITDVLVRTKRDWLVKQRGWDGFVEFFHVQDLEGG
run.description: Biacore solution competition against immobilised mouse wtBimBH3
Recorded IC50 for the following binders

binder	IC50
NLWAAQRYGRELRRMSDEFVDSFKKG [Bad (103-128) BH3 peptide, human]	> 100 µM
HRAEVQIARKLQCIADQFHRLHTQ [m Bmf (128-151) BH3 peptide]	1.1 µM
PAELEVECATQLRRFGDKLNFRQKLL [Noxa (18-43) BH3 peptide, human]	0.024 µM
